# target.or.test.system: TRPC5 (Homo sapiens, UniProt Q9UL62)
# Construct: homomer
# Sequence (Q9UL62 1-973): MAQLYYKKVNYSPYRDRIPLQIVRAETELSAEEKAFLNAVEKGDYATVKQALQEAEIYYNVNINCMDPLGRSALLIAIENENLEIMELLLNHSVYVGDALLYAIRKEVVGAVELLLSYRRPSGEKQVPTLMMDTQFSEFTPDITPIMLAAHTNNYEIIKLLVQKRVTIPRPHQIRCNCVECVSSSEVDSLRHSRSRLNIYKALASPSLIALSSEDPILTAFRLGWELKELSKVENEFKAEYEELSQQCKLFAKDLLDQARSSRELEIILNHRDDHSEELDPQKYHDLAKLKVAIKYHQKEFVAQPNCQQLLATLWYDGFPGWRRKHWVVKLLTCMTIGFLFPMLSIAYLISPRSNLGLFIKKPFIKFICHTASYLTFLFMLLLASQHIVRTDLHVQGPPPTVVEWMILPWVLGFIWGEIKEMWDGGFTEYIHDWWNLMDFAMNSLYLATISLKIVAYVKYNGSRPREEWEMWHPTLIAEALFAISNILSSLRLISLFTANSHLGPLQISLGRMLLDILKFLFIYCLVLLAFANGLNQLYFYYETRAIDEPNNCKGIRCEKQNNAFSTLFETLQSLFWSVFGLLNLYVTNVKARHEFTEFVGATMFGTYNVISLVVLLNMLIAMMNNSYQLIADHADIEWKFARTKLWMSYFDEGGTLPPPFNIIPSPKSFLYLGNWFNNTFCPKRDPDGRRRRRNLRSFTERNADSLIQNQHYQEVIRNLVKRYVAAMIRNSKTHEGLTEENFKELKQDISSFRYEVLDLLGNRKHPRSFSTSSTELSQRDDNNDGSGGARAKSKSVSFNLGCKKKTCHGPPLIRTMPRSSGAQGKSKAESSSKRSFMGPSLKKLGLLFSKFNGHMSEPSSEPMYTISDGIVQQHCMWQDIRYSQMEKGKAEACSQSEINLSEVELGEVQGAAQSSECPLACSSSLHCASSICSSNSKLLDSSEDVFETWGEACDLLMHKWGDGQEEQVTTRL
# protocol.notes: fura-2 Ca2+ entry, FlexStation 96-well
# run.conditions: activated by 10 nM (-)-englerin A; pH 7.4; room temperature; 30 min preincubation; read-out: C31 IC50

[
  {
    "smiles.structure": "Cn1c(=O)n(CCCO)c(=O)c2c1nc(Oc1cccc(OC(F)(F)F)c1)n2Cc1ccc(Cl)cc1",
    "IC50 / nM": 1.3
  }
]

----------
# target.or.test.system: TRPC5-TRPC1 concatemer (Homo sapiens, UniProt P48995+Q9UL62)
# Construct: concatemer of TRPC5 with TRPC1
# protocol.notes: fura-2 Ca2+ entry, FlexStation 96-well
# run.conditions: read-out: C31 IC50
pIC50: −log10 of the molar value.

[
  {
    "compound": "Cn1c(=O)n(CCCO)c(=O)c2c1nc(Oc1cccc(OC(F)(F)F)c1)n2Cc1ccc(Cl)cc1 [compound 31, C31]",
    "pIC50": 9.70
  }
]

Where these numbers come from: paper PMC5437225
